compounds and their reported IC50
Biological target: wt Cdr1 ATPase activity (Candida albicans)
Sequence (Q5ANA3 whole entry): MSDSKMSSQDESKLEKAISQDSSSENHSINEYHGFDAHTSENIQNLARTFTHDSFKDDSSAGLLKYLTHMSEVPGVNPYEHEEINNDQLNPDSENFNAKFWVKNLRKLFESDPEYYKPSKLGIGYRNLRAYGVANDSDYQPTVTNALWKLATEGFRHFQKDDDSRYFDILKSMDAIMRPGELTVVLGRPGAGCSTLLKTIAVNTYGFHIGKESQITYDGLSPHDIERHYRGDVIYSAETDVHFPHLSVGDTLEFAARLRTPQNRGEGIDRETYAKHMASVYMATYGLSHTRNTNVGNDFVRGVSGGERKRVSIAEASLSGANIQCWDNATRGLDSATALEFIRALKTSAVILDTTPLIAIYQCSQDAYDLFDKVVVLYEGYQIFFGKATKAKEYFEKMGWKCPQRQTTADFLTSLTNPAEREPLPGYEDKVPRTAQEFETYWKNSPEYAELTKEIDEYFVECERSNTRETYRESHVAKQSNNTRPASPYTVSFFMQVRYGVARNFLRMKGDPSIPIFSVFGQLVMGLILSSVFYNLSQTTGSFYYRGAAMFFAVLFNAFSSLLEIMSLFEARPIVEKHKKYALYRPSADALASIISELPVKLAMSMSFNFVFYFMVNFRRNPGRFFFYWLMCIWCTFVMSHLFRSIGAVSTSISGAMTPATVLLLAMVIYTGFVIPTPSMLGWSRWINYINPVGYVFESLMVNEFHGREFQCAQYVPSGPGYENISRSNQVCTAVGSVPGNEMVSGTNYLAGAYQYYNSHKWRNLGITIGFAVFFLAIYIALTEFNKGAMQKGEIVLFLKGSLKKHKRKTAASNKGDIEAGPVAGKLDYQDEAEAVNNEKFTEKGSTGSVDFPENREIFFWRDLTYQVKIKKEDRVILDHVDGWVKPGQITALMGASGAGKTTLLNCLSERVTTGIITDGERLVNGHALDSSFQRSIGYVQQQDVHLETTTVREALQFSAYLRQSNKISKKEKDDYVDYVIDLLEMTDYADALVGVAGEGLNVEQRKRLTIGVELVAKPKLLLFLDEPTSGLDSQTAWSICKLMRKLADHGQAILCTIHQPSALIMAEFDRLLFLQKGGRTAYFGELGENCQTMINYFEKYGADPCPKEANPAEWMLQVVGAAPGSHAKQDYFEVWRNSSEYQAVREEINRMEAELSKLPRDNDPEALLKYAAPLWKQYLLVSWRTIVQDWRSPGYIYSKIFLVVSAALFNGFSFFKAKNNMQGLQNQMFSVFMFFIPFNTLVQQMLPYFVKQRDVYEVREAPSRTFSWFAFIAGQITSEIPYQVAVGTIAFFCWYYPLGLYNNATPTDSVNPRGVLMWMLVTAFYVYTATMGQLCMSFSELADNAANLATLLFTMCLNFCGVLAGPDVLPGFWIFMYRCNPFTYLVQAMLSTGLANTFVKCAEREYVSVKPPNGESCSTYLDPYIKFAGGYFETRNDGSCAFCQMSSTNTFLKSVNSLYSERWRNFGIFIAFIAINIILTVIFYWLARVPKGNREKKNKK
Assay: biochemical
Settings: CDR1 (wt); > = only partial inhibition; none = no reduction at highest concentration; read-out: Estimated IC50 for substrate inhibition of the ATPase activity
assayMetric: IC50

INSERT INTO results (compound, result) VALUES
  ('CCC(C)n1ncn(-c2ccc(N3CCN(c4ccc(OCC5COC(Cn6cncn6)(c6ccc(Cl)cc6Cl)O5)cc4)CC3)cc2)c1=O (stereo not drawn)', '> 32 µM'),
  ('CC[C@@]1([C@@H]2O[C@@H]([C@H]3O[C@@](O)(CO)[C@H](C)C[C@@H]3C)C[C@@H]2C)CC[C@H]([C@]2(C)CC[C@]3(C[C@H](O)[C@@H](C)[C@@H]([C@@H](C)[C@@H](OC)[C@H](C)C(=O)O)O3)O2)O1', '> 256 µM'),
  ('CO[C@@H]1C[C@@H](C[C@H]2CC[C@H](C)[C@H]([C@@H](C)C(=O)O)O2)O[C@]2(O[C@](C)([C@H]3CC[C@@](C)([C@@H]4O[C@@H]([C@H]5O[C@@](O)(CO)[C@H](C)C[C@@H]5C)C[C@@H]4C)O3)C[C@H]2C)[C@@H]1C', '> 256 µM');

----------
Test system: AD/pABC3 (empty vector control, sensitive strain)
Assay: microbe, parasite or virus in culture
Settings: Saccharomyces cerevisiae, read-out: MIC (drug susceptibility), strain AD/pABC3
assayMetric: MIC

INSERT INTO assay_data (molecule, testsystem, assaymetric, result) VALUES
  ('C[C@@H](c1ncncc1F)[C@](O)(Cn1cncn1)c1ccc(F)cc1F [VRC, voriconazole]', 'AD/pABC3 (empty vector control, sensitive strain)', 'MIC', '0.016 µg/mL'),
  ('CO[C@@H]1C[C@@H](C[C@H]2CC[C@H](C)[C@H]([C@@H](C)C(=O)O)O2)O[C@]2(O[C@](C)([C@H]3CC[C@@](C)([C@@H]4O[C@@H]([C@H]5O[C@@](O)(CO)[C@H](C)C[C@@H]5C)C[C@@H]4C)O3)C[C@H]2C)[C@@H]1C [NIG, nigericin]', 'AD/pABC3 (empty vector control, sensitive strain)', 'MIC', '0.063 µg/mL'),
  ('C/C=C/C/C=C/CCC(=O)[C@H]1O[C@H]1C(N)=O [CER, cerulenin]', 'AD/pABC3 (empty vector control, sensitive strain)', 'MIC', '0.25 µg/mL');
